assay: LD50 (acute toxicity); details: in vivo, po
property measured: LD50

Please state, for each entry, its recorded LD50.
1. CC(C)CN(CC(C)C)c1ccc(C(=O)c2ccccc2)cc1N
2. CCOc1ccc(NC(C)=O)cc1 [Phenacetine, reference compound]
3. CCCCCCCCCCCCCCCC(=O)Nc1cc(C(=O)c2ccccc2)ccc1N1CCOCC1
4. Nc1cc(C(=O)c2ccccc2)ccc1N1CCOCC1
5. CN1CCN(c2ccc(C(=O)c3ccccc3)cc2N)CC1

Response:
1. > 600 mg/kg
2. 2400 mg/kg
3. > 500 mg/kg
4. > 3000 mg/kg
5. > 3000 mg/kg
